The values you see were collected from paper PMC10720030.

Measured on: PIM-1 kinase (Homo sapiens)
Assay procedure: PIM-1 kinase inhibitory assay
Assay type: biochemical
Condition summary: concentration not given
Measurement type: % of kinase inhibition, PIM-1 kinase (%)

In: Supply % of kinase inhibition, PIM-1 kinase value. Item: COC(=O)CNC(=O)COc1nc(C)cc(C)c1C#N
Out: 90.1

In: Supply % of kinase inhibition, PIM-1 kinase value. Item: Cc1cc(C)c(C#N)c(OCC(=O)N2CCCCC2)n1
Out: 94.9

In: Supply % of kinase inhibition, PIM-1 kinase value. Item: Cc1cc(C)c(C#N)c(OCC(=O)N2CCOCC2)n1
Out: 97.5

In: Supply % of kinase inhibition, PIM-1 kinase value. Item: CCCCCSc1nnc(COc2nc(C)cc(C)c2C#N)o1
Out: 94.3

---

Test system: breast MCF-7 cancer cells
Assay procedure: Cytotoxicity using the MTT assay, MCF-7
Assay type: cell-based
Condition summary: Homo sapiens, MCF7, 48 h, read-out: IC50 ± SD, MCF7, MCF7, MTT, 48 h, n = 3
Entries and their IC50
Supply the numeric figure in nM, leaving out any unit text.

Take a look at these entries with their results.
In: Supply IC50 value. Item: COc1cccc2c1C(=O)c1c(O)c3c(c(O)c1C2=O)C[C@@](O)(C(=O)CO)C[C@@H]3O[C@H]1C[C@H](N)[C@H](O)[C@H](C)O1 [doxorubicin, reference compound]
Out: 2140

In: Supply IC50 value. Item: Cc1cc(C)c(C#N)c(OCC(=O)N2CCOCC2)n1
Out: 500

Now, please, on to the next compound.
In: Supply IC50 value. Item: COC(=O)CNC(=O)COc1nc(C)cc(C)c1C#N
Out: 730

---

Measured on: PIM-1 kinase (Homo sapiens, UniProt P11309)
Sequence (P11309 whole entry): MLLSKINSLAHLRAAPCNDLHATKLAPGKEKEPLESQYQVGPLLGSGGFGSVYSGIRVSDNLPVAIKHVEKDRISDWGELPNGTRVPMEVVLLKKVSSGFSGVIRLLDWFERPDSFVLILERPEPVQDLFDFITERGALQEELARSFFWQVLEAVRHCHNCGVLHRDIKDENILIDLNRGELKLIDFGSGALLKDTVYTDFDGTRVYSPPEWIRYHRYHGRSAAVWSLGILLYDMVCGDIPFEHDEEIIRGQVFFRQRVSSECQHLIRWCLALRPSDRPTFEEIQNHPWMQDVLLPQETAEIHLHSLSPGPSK
Measurement type: IC50 (nM)

Take a look at these entries with their results.
In: Identify measured IC50 obtained with PIM-1 kinase (Homo sapiens, UniProt P11309) for Cc1cc(C)c(C#N)c(OCC(=O)N2CCOCC2)n1 [Compound 12] .
Out: 14.3

In: Identify measured IC50 obtained with PIM-1 kinase (Homo sapiens, UniProt P11309) for CCCCCSc1nnc(COc2nc(C)cc(C)c2C#N)o1 [Compound 6] .
Out: 19.4

A. Cc1cc(C)c(C#N)c(OCC(=O)N2CCCCC2)n1 [Compound 13]
B. COC(=O)CNC(=O)COc1nc(C)cc(C)c1C#N [Compound 11]
In: Decide: A or B , by lowest recorded IC50. Indicate your choice by writing its label.
Out: A
(A: 19.8 nM, B: 42.3 nM)

---

Entries and their inhibition at 100 µM
Tested on: breast MCF-7 cancer cells
Assay procedure: Cytotoxicity using the MTT assay, MCF-7
Assay type: cell-based
Condition summary: Homo sapiens, MCF7, 48 h, read-out: % of cell inhibition ± SD at [100 μM], MCF7
Supply the numeric figure in %, leaving out any unit text.

Take a look at these entries with their results.
In: Supply inhibition at 100 µM value. Item: CCOC(=O)CSc1nnc(COc2nc(C)cc(C)c2C#N)o1
Out: 55.1

In: Supply inhibition at 100 µM value. Item: Cc1cc(C)c(C#N)c(OCC(=O)NCc2ccccc2)n1
Out: 48.8

In: Supply inhibition at 100 µM value. Item: C=CCSc1nnc(COc2nc(C)cc(C)c2C#N)o1
Out: 47

In: Supply inhibition at 100 µM value. Item: Cc1cc(C)c(C#N)c(OCC(=O)N2CCOCC2)n1
Out: 84.2

In: Supply inhibition at 100 µM value. Item: COC(=O)CNC(=O)COc1nc(C)cc(C)c1C#N
Out: 78.6

Continuing:
In: Supply inhibition at 100 µM value. Item: CC(=O)OC[C@H]1O[C@H](Sc2nnc(COc3nc(C)cc(C)c3C#N)o2)[C@H](OC(C)=O)[C@@H](OC(C)=O)[C@H]1OC(C)=O
Out: 59.8

In: Supply inhibition at 100 µM value. Item: Cc1cc(C)c(C#N)c(OCc2n[nH]c(=S)o2)n1
Out: 41.9

In: Supply inhibition at 100 µM value. Item: COc1cccc2c1C(=O)c1c(O)c3c(c(O)c1C2=O)C[C@@](O)(C(=O)CO)C[C@@H]3O[C@H]1C[C@H](N)[C@H](O)[C@H](C)O1 [doxorubicin, reference compound]
Out: 90.2

In: Supply inhibition at 100 µM value. Item: Cc1cc(C)c(C#N)c(OCc2nnc(SCc3ccccc3)o2)n1
Out: 72.1

In: Supply inhibition at 100 µM value. Item: Cc1cc(C)c(C#N)c(OCC(=O)N2CCCCC2)n1
Out: 64.6

In: Supply inhibition at 100 µM value. Item: CCCCCSc1nnc(COc2nc(C)cc(C)c2C#N)o1
Out: 78.2
